Test: FRG1 promoter luciferase signal modulators, primary screen, FRG1 inhibition for FSHD, cell-based, C2C12 myotubes, firefly/Renilla luciferase, luminescence (AID 1084)
Conditions: higher = more signal, called active from +8 up or from −8 down

{"STRUCTURE NOTATION": "C=C(COC)C(=O)CC[C@H](OC(=O)c1ccccc1-c1ccccc1C(=O)O)c1cccc(OCCO)c1", "z-score": -3.97}
{"STRUCTURE NOTATION": "C=C(CCCC)/C(=C/C[C@@H](OC(=O)c1ccncc1)c1ccc(CO)o1)c1cnc2ccccc2c1", "z-score": -0.452}
{"STRUCTURE NOTATION": "CO[C@H]1COC(=O)[C@@H](C)NC(=O)CC=C[C@@H](C)[C@H](OC)COC(=O)CC=C[C@@H]1C", "z-score": -1.32}
{"STRUCTURE NOTATION": "CCCN1C(=O)[C@@]2(CCS(=O)(=O)c3ccccc3)N=C(c3ccc(OCCCO)cc3)O[C@H]2c2ccccc21", "z-score": -3.15}
{"STRUCTURE NOTATION": "O=C1O[C@H](c2ccccc2)[C@H](c2ccccc2)N2[C@H]1[C@@H](C(=O)NC[C@H](O)c1ccccc1)[C@]1(C(=O)Nc3ccc(C#CC4=CCCCC4)cc31)[C@H]2c1ccc(OCCO)cc1", "z-score": 0.315}
{"STRUCTURE NOTATION": "C=CCc1cccc([C@@H]2[C@@H](C)CC[C@H]3C(=O)N4[C@H](c5cccc(CC=C)c5)[C@@H](C)CC[C@H]4C(=O)N23)c1", "z-score": 0.313}
{"STRUCTURE NOTATION": "CC(C)(C)OC(=O)CC[C@]1(C(=O)NCCN2CCOCC2)N=C(c2ccc(OCCCO)cc2)O[C@H]1c1ccccc1CN=[N+]=[N-]", "z-score": 2.72}
{"STRUCTURE NOTATION": "Cc1ccc(S[C@]2(C(=O)NC(C)C)CC(=O)N(C3Cc4ccccc4C3)[C@@H]2c2ccc(CO)cc2)cc1", "z-score": -2.74}
{"STRUCTURE NOTATION": "C=CCN1C(=O)[C@]2(O[C@H](CCn3cc(CCO)nn3)[C@@H]([Si](C)(C)c3ccc(OC)cc3)[C@@H]2C)c2cc(NC(=O)c3ccc(OC)cc3)ccc21", "z-score": -2.48}
{"STRUCTURE NOTATION": "CCCNC(=O)[C@@H]1c2ccccc2C(=O)N(C2CCCCC2)[C@H]1c1ccc(CO)cc1", "z-score": -0.0971}
{"STRUCTURE NOTATION": "COc1ccc([Si](C)(C)[C@H]2[C@H](CCO)O[C@@]3(C(=O)N(Cc4ccccc4)c4ccc(N5C(=O)c6cccc7cccc5c67)cc43)[C@@H]2C)cc1", "z-score": -1.3}
{"STRUCTURE NOTATION": "O=C/C=C/c1ccccc1Cl", "z-score": 1.58}
{"STRUCTURE NOTATION": "[N-]=[N+]=NCc1ccccc1C[C@]1(C(N)=O)N=C(c2ccc(OCCCO)cc2)O[C@H]1c1ccccc1CN=[N+]=[N-]", "z-score": -1.55}
{"STRUCTURE NOTATION": "COCCOC(=O)N1C(=O)[C@@]2(c3cc(C#CCCO)ccc31)[C@H](c1ccc(O)cc1)N1[C@H](c3ccccc3)[C@H](c3ccccc3)OC(=O)[C@H]1[C@@H]2C(=O)Nc1nc2ccccc2s1", "z-score": -0.205}

----------
Listing: z-score of selected compounds
Test: RPMI8226 myeloma cell viability, profiling panel, resazurin fluorescence, basal, 24 h, PK04 Diversity Set (AID 1180);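 further: RPMI8826 multiple myeloma cell line at 5000 cells per well; test concentration not given here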
Settings: higher = more signal

{"COMPOUND": "COCCOC(=O)N1C(=O)[C@@]2(c3cc(C#CCNC(N)=O)ccc31)[C@H](C(=O)N1CCCCCCC1)[C@H]1C(=O)O[C@H](c3ccccc3)[C@H](c3ccccc3)N1[C@@H]2c1ccccc1OCCO", "z-score": 0.368}
{"COMPOUND": "CC1=C([C@H](O)CCc2ccccc2)[C@H](CO)[C@@H]2C(=O)N(Cc3ccccc3)C(=O)[C@@H]2C1", "z-score": 0.308}
{"COMPOUND": "C=C(CCCC)/C(=C/C[C@H](OC(=O)c1ccncc1)c1cccc(OCCO)c1)c1cc(C(=O)OC)ccc1OC", "z-score": 0.15}
{"COMPOUND": "O=C1O[C@H](c2ccccc2)[C@H](c2ccccc2)N2[C@H]1[C@@H](C(=O)NC[C@H](O)c1ccccc1)[C@]1(C(=O)Nc3ccc(C#CC4=CCCCC4)cc31)[C@H]2c1ccc(OCCO)cc1", "z-score": -3.18}
{"COMPOUND": "C[N+](C)(C)CCCCNC(=O)[C@H]1C[C@H]2C(=O)NCC(=O)N2[C@H]1c1cccc(OCCO)c1", "z-score": -1.15}
{"COMPOUND": "NC(=O)NCC#Cc1ccc2c(c1)[C@]1(C(=O)N2)[C@H](c2ccccc2OCCO)N2[C@H](c3ccccc3)[C@H](c3ccccc3)OC(=O)[C@H]2[C@@H]1C(=O)N1CCN(c2ncccn2)CC1", "z-score": 1.19}
{"COMPOUND": "O=C1C2C=CC(C(O)C#Cc3ccccc3)N(Nc3ccccc3)C2C(=O)N1c1ccccc1 (stereo not drawn)", "z-score": 0.0581}
{"COMPOUND": "COCCOC(=O)N1C(=O)[C@@]2(c3cc(C#CCNC(N)=O)ccc31)[C@H](c1ccc(OCCO)cc1)N1[C@H](c3ccccc3)[C@H](c3ccccc3)OC(=O)[C@H]1[C@@H]2C(=O)Nc1nc2ccccc2s1", "z-score": 1.3}
{"COMPOUND": "CN1CCC(CCCO)=CC1C1CC1 (stereo not drawn)", "z-score": 0.63}
{"COMPOUND": "Cc1ccc(S[C@]2(C(=O)O)CC(=O)N(Cc3cc(C(F)(F)F)cc(C(F)(F)F)c3)[C@@H]2c2ccc(CO)cc2I)cc1", "z-score": -1.47}
{"COMPOUND": "CC(C)NC(=O)[C@@]1(Cc2ccccc2I)c2ccccc2C(=O)N(C2CCCCC2)[C@H]1c1ccc(CO)cc1", "z-score": 0.751}
{"COMPOUND": "COc1ccc(CCNC(=O)[C@@]2(c3ccc([N+](=O)[O-])cc3)CC(=O)N(C(C)C)[C@@H]2c2ccc(CO)cc2)cc1", "z-score": 1.19}
{"COMPOUND": "O=C1O[C@H](c2ccccc2)[C@H](c2ccccc2)N2[C@H]1[C@@H](C(=O)Nc1nc3ccccc3s1)[C@]1(C(=O)Nc3ccc(C#CC4(O)CCCCCC4)cc31)[C@H]2c1ccc(O)cc1", "z-score": -1.36}

----------
Assay: basal RPMI8226 viability, no added stimulus, profiling panel, cell-based, calcein-AM fluorescence, 48 h, PK04 Diversity Set (AID 1166);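 further: cells grown under basal conditions without added stimulus; test concentration not given here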
Conditions: RPMI8226 myeloma viability, higher = more signal

{"COMPOUND": "CC(C)(C)OC(=O)CC[C@]1(C(=O)N2CCCCC2)N=C(c2ccc(OCCCO)cc2)O[C@H]1c1ccccc1", "z-score": -1.04}
{"COMPOUND": "COCCOC(=O)N1C(=O)[C@@]2(c3cc(C#CC4=CCCCC4)ccc31)[C@H](c1ccc(O)cc1)N1[C@H](c3ccccc3)[C@H](c3ccccc3)OC(=O)[C@H]1[C@@H]2C(=O)N1CCCCCCC1", "z-score": -0.641}
{"COMPOUND": "C=CC[C@]1(C(=O)NCC(O)CO)N=C(c2ccc(OCCCO)cc2)O[C@H]1c1ccccc1 (some centres not stated)", "z-score": 0.213}
{"COMPOUND": "NC(=O)[C@H]1[C@@H]2C(=O)O[C@@H](c3ccccc3)[C@@H](c3ccccc3)N2[C@@H](c2ccc(O)cc2)[C@]12C(=O)Nc1ccc(C#CCCO)cc12", "z-score": 0.0381}
{"COMPOUND": "CCCCO[C@H]1C[C@H]2C(Br)=C[C@@]1(CO)C(=O)[C@]21CO1", "z-score": -0.545}
{"COMPOUND": "[N-]=[N+]=NCc1ccccc1C[C@]1(C(=O)N2CCCCC2)N=C(c2ccc(OCCCO)cc2)O[C@H]1c1ccccc1CN=[N+]=[N-]", "z-score": -4.22}
{"COMPOUND": "CCCC[C@@H]1C[C@H]1[C@@H](NC(=O)c1ccccc1)c1ccccc1C(F)(F)F", "z-score": -0.947}

----------
Test: small-molecule microarray binders of probe aShh, primary screen, biochemical, biotinylated probe, 635/667 nm fluorescence (AID 1114);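 further: probe is biotin-labelled aShh protein from a stem cell growth factor screen; measures binding of labelled protein to compounds printed on the slide; score merges feature fluorescence at 667 nm with signal-to-noise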
Settings: higher = more signal
Listing: composite z-score of selected compounds
EXPERIMENTAL READOUT: composite z-score

{"STRUCTURE NOTATION": "CO[C@H]1O[C@H](CO)[C@@H](OC(=O)Nc2ccc3c(c2)OCO3)[C@H](OC(=O)Nc2ccccc2)[C@@H]1OC(=O)Nc1ccccc1", "RECORDED RESULT": 0.0796}
{"STRUCTURE NOTATION": "C=CCNC(=O)[C@@H]1[C@H]2C(=O)O[C@H](c3ccccc3)[C@H](c3ccccc3)N2[C@H](c2ccc(OCCO)cc2)[C@@]12C(=O)N(C(=O)OCCOC)c1ccc(C#CC3(O)CCCCCC3)cc12", "RECORDED RESULT": 0.293}
{"STRUCTURE NOTATION": "O=[N+]([O-])c1ccc(C[n+]2ccc3ccc(O)cc3c2)o1", "RECORDED RESULT": 0.673}
{"STRUCTURE NOTATION": "O=C(CS)NCCCCCNC(=O)[C@H]1C[C@H]2C(=O)N3CCC[C@H]3C(=O)N2[C@H]1c1ccc(O)cc1", "RECORDED RESULT": 0.046}
{"STRUCTURE NOTATION": "COC(=O)Cn1c(C(=O)N2CCCC2)cc2c1C[C@H]1CN(C(=O)c3ccccc3)[C@@](Cc3ccc(OC)cc3)(C(=O)OC)[C@@H]21", "RECORDED RESULT": 0.593}
{"STRUCTURE NOTATION": "C[C@]1(C(=O)NCc2ccccc2)c2ccccc2C(=O)N(Cc2cc(C(F)(F)F)cc(C(F)(F)F)c2)[C@H]1c1ccc(CO)cc1", "RECORDED RESULT": 1.39}
{"STRUCTURE NOTATION": "CC(=O)NCCCC[C@@H]1NC(=O)[C@@H]2C[C@H](C(=O)NCCCCCNC(=O)CS)[C@H](c3ccc(O)cc3)N2C1=O", "RECORDED RESULT": 0.0284}
